# Test system: MARK2
# Experimental Setup: concentration: 1 μM, replicates: in singlicate; n = 1;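 also: KINOMEscan kinase panel screen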
Value Type: %Inh (%)
Give bare numbers, in %.

Reference set, count: 3
C[C@@H](Oc1cc(-n2cnc3ccc(NC(=O)NC(C)(C)C)cc32)sc1C(N)=O)c1ccccc1Cl [GSK346294] ... 0
Cc1cccc(-c2nc(-c3ccc(S(C)(=O)=O)cc3)sc2-c2ccncc2)c1 ... 0
Cc1nnc(-c2ccc(C)c(-c3ccc(C(=O)Nc4ccc(NS(C)(=O)=O)cc4)cc3)c2)o1 [GW702865] ... 0

// input: 7 compounds below; output: %Inh for each
1. O=C(NCCNc1ccnc(Nc2ccc(F)cc2)n1)Nc1ccccc1F [GSK1379880]
2. NCC(NC(=O)c1cc(-c2cn[nH]c2)c(-c2ccnc3[nH]ccc23)s1)c1ccccc1.O=C(O)C(F)(F)F.O=C(O)C(F)(F)F (centres unmarked) [GSK1325775]
3. CN(C(=O)c1ccc(-c2cc(-c3c[nH]nc3-c3ccccn3)ccn2)cc1)C1CCOCC1 [GW810083]
4. COc1cc2ncn(-c3cc(OCc4sccc4Cl)c(C(N)=O)s3)c2cc1OC [GSK448459]
5. O=c1cc(N2CCOCC2)nc2n(Cc3cccc(Cl)c3Cl)c(C3CC3)nn12 [GSK2358994]
6. CCCCCc1nc2c(N)ncnc2n1CCCCC [SKF-97255]
7. NS(=O)(=O)CCc1cccc(Nc2nccc(-c3c(-c4cccc(NC(=O)c5c(F)cccc5F)c4)nn4ccccc34)n2)c1 [GSK336735]

Reply text:
1. 0
2. 25
3. 36
4. 0
5. 0
6. 0
7. 0

// input: 3 compounds below; output: %Inh for each
1. Cc1cccc(-c2nc(Nc3ccc4ncsc4c3)c3ccccc3n2)n1 [GW867588]
2. CN(C1=C(c2ccccc2)C(=O)NC1=O)c1ccccc1 [SB-334860]
3. COc1ccc(Nc2nccc(N3CCC(NC(=O)Nc4cccc(C(C)=O)c4)C3)n2)cc1 (centres unmarked) [GSK1379731]

Reply text:
1. 0
2. 3
3. 0

---

# Test system: PCTK3
# Construct: gene CDK18
# Experimental Setup: concentration: 1 μM, replicates: in singlicate; n = 1
%Inh below 10% gives no (0); %Inh at or above it gives yes (1).

COc1ccc(Nc2nccc(N3CCC(NC(=O)Nc4cc(C)ccc4C)C3)n2)cc1 (stereo not drawn) [GSK1379741] ... no (0)
Fc1ccc(-c2ncn(CCCN3CCOCC3)c2-c2ccccn2)cc1 [SB-211742] ... no (0)
Cc1nnc(-c2ccc(C)c(-c3ccc(C(=O)Nc4ccc(NS(C)(=O)=O)cc4)cc3)c2)o1 [GW702865] ... yes (1)
O=C1Cc2cc(Nc3nc(NCc4cccc(S(=O)(=O)C(F)(F)F)c4)ncc3C(F)(F)F)ccc2N1 ... no (0)
Cc1nnc(-c2ccc3occ(-c4ccc(C(C)O)cc4)c3c2)o1 (stereo not drawn) ... no (0)
NCCNS(=O)(=O)c1ccc(-c2ccnc3[nH]ccc23)cc1 [GSK977617] ... no (0)
Cc1cn2c(=O)cc(N3CCOCC3)nc2n1Cc1cccc(Cl)c1Cl [GSK2334006] ... yes (1)
Cc1cccc(Cn2ccn3c(=O)cc(N4CCOCC4)nc23)c1 [GSK2297542] ... yes (1)

Next item in the queue.
Inquiry: State whether the measured %Inh reaches 10%, counting equality as reaching it, for c1ccc(-c2cc(-c3c[nH]nc3-c3ccccn3)ccn2)cc1 [GW576604]
Reply text: yes (1)
